Biological target: B-Raf kinase (Homo sapiens, UniProt P15056)
Sequence (P15056 whole entry): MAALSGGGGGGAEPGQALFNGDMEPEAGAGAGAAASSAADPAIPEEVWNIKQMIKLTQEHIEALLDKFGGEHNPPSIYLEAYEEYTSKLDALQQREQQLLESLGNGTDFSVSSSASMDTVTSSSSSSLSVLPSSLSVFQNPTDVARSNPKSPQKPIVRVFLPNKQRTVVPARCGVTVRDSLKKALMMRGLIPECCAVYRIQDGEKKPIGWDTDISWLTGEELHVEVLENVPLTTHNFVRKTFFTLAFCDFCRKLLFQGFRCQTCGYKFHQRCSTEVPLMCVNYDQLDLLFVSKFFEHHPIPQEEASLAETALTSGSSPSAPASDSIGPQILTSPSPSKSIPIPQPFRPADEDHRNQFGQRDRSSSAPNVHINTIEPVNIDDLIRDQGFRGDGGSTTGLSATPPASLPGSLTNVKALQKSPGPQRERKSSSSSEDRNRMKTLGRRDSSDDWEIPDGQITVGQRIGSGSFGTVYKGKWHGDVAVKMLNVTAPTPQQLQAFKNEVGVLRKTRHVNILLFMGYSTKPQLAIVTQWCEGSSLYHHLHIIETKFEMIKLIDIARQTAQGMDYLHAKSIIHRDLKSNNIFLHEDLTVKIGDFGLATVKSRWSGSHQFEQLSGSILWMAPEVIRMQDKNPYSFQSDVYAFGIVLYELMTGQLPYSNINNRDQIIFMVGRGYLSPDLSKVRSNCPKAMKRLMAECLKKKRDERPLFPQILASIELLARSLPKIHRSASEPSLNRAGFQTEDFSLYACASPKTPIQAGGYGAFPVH
Test: B-Raf kinase assay ([33P] incorporation into MEK1 K97R)
Settings: recombinant B-Raf, 8 μM ATP, 30 min, 30° C.; read-out: IC50 ranking against B-Raf kinase
Experimental: Inhibition of kinase activity by a test compound disclosed herein was estimated by quantifying the amount of [^33P] incorporation of a substrate in the presence of the test compound. […] Reactions were incubated at 30° C. for 30 min and stopped by adding 3% phosphoric acid, harvested onto a 96-well GF/B UniFilter (PerkinElmer) using a unifilter harvester (PerkinElmer), and counted with a TopCount microplate scintillation counter (PerkinElmer). […]
pIC50: −log10 of the molar value.
measured_quantity: pIC50

Examples with their reported pIC50 follow.
>>> df
                                   molecule  endpoint_value
0  COc1cnc2ccc(Nc3cc(NS(C)(=O)=O)ccc3F)c(C#N)c2n1 [compound 41]    5.00 to 6.00
1  CCCS(=O)(=O)Nc1ccc(F)c(Nc2ccc3ncc(N(C)C)nc3c2C#N)c1 [compound 28]    6.00 to 6.52

For the next question, use this molecule.
Which pIC50 is listed for CCCS(=O)(=O)Nc1ccc(F)c(Nc2ccc3ncc(OCCN4CCOCC4)nc3c2C#N)c1F [compound 16] ?
> 6.52

====

Target: C-Raf kinase (Homo sapiens)
Assay: C-Raf kinase assay ([33P] incorporation into MEK1 K97R)
Details: recombinant C-Raf, 8 μM ATP, 30 min, 30° C.; read-out: IC50 ranking against C-Raf kinase
pIC50: −log10 of the molar value.
measured_quantity: pIC50

>>> print(df.to_string())
                           structure_smiles  measured_quantity  endpoint_value
0  COc1cnc2ccc(Nc3c(F)ccc(NS(C)(=O)=O)c3F)c([N+](=O)[O-])c2n1              pIC50    6.00 to 6.52
1  CCCS(=O)(=O)Nc1ccc(F)c(Nc2ccc3ncc(OC)nc3c2N)c1F              pIC50    6.00 to 6.52
2  N#Cc1c(Nc2cc(NS(=O)(=O)c3ccccc3)ccc2F)ccc2ncc(N3CCOCC3)nc12              pIC50          > 6.52
3  COc1cnc2ccc(Nc3cc(NS(C)(=O)=O)ccc3F)c(C#N)c2n1              pIC50    5.00 to 6.00
4  CCOc1cnc2ccc(Nc3c(F)ccc(NS(=O)(=O)CCCF)c3F)c(C#N)c2n1              pIC50          > 6.52

Below: the item to evaluate.
Please look up its pIC50: CCCS(=O)(=O)Nc1ccc(F)c(Nc2ccc3ncc(N4CCOCC4)nc3c2C#N)c1
5.00 to 6.00

====

Biological target: B-Raf kinase (Homo sapiens, UniProt P15056)
Assay: B-Raf kinase assay ([33P] incorporation into MEK1 K97R)
Conditions: recombinant B-Raf, 8 μM ATP, 30 min, 30° C.; read-out: IC50 ranking against B-Raf kinase
Protocol: Inhibition of kinase activity by a test compound disclosed herein was estimated by quantifying the amount of [^33P] incorporation of a substrate in the presence of the test compound. […] Reactions were incubated at 30° C. for 30 min and stopped by adding 3% phosphoric acid, harvested onto a 96-well GF/B UniFilter (PerkinElmer) using a unifilter harvester (PerkinElmer), and counted with a TopCount microplate scintillation counter (PerkinElmer). […]
pIC50: −log10 of the molar value.
measured_quantity: pIC50

Below: 5 compounds and their reported pIC50.
In [3]: df
Out[3]:
                           structure_smiles  endpoint_value
0  CCCS(=O)(=O)Nc1ccc(F)c(Nc2ccc3ncc(Nc4ccccc4F)nc3c2)c1F          > 6.52
1  CCCS(=O)(=O)Nc1ccc(F)c(Nc2ccc3ncc(N(C)C)nc3c2C#N)c1F          > 6.52
2  CCCS(=O)(=O)Nc1ccc(F)c(Nc2ccc3ncc(OCC)nc3c2C#N)c1          > 6.52
3  CCCS(=O)(=O)Nc1ccc(F)c(Nc2ccc3ncc(OC)nc3c2C(=O)O)c1F    6.00 to 6.52
4  COc1cnc2ccc(Nc3c(F)ccc(NS(=O)(=O)c4ccccc4)c3Cl)c(C#N)c2n1          > 6.52

Lab note: need pIC50 with B-Raf kinase (Homo sapiens, UniProt P15056) for entry CCCS(=O)(=O)Nc1ccc(C)c(Nc2ccc3ncc(OC)nc3c2C#N)c1 , please look it up.
6.00 to 6.52

How about CCCS(=O)(=O)N(CC)c1ccc(F)c(Nc2ccc3ncc(OC)nc3c2C#N)c1F ?
> 6.52

====

Target: B-Raf^V600E kinase (Homo sapiens, UniProt P15056, V600E)
Sequence (P15056 whole entry V600E): as the sequence (P15056 whole entry) above, with V600E counted along it
Test: B-Raf V600E kinase assay ([33P] incorporation into MEK1 K97R)
Conditions: recombinant B-Raf^V600E, 8 μM ATP, 30 min, 30° C.; read-out: IC50 ranking against B-Raf^V600E kinase
measured_quantity: IC50

The cases that follow already have their IC50 on record.
                           structure_smiles    endpoint_value
0  CCCS(=O)(=O)Nc1ccc(F)c(Nc2ccc3ncc(N4CCOCC4)nc3c2C#N)c1    300 to 1000 nM
1  CCOc1cnc2ccc(Nc3cc(NS(C)(=O)=O)ccc3F)c(C#N)c2n1  1000 to 10000 nM
2  COc1cnc2ccc(Nc3cc(NS(C)(=O)=O)ccc3F)c(C#N)c2n1  1000 to 10000 nM
3  CCOc1cnc2ccc(Nc3c(F)ccc(NS(=O)(=O)CCCF)c3F)c(C#N)c2n1          < 300 nM
4  N#Cc1c(Nc2cc(NS(=O)(=O)c3ccccc3)ccc2F)ccc2ncc(N3CCOCC3)nc12          < 300 nM

Bench note: what IC50 did COc1cnc2ccc(Nc3c(F)ccc(NS(=O)(=O)c4ccccc4)c3Cl)c(C#N)c2n1 show?
< 300 nM

Now this one: CCOc1cnc2ccc(Nc3cc(NS(=O)(=O)c4ccccc4)ccc3F)c(C#N)c2n1
< 300 nM

How about this molecule: CCCS(=O)(=O)Nc1ccc(F)c(Nc2ccc3ncc(OCCN4CCOCC4)nc3c2C#N)c1F
< 300 nM

Then this molecule: CCCS(=O)(=O)Nc1ccc(F)c(Nc2ccc3ncc(N(C)C)nc3c2C#N)c1F
< 300 nM

====

Quick reference: pIC50 of the listed items.
Molecular target: C-Raf kinase (Homo sapiens, UniProt P04049)
Sequence (P04049 whole entry): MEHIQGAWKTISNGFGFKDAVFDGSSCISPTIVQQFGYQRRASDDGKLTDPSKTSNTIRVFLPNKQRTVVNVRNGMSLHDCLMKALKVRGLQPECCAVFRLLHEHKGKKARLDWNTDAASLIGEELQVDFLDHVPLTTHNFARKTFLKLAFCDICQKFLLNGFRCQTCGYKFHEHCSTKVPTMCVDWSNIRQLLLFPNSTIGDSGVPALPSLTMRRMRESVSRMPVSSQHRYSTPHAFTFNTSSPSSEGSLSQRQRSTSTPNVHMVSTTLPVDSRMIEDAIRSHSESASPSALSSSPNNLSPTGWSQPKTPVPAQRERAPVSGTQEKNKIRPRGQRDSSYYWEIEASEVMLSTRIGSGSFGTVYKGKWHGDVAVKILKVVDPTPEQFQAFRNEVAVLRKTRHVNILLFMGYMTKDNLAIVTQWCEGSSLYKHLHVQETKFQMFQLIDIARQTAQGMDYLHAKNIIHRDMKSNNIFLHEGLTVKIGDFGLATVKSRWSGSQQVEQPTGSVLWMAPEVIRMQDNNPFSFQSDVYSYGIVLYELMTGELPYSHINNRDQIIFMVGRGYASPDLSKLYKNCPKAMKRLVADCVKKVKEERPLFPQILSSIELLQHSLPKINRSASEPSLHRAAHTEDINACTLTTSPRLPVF
Assay: C-Raf kinase assay ([33P] incorporation into MEK1 K97R)
Conditions: recombinant C-Raf, 8 μM ATP, 30 min, 30° C.; read-out: IC50 ranking against C-Raf kinase
pIC50: −log10 of the molar value.

Please review the entries below; each comes with its answer.
>>> df
                           structure_smiles                               system_name  measured_quantity  endpoint_value
0  CCCS(=O)(=O)Nc1ccc(F)c(Nc2ccc3ncc(OCCOC)nc3c2[N+](=O)[O-])c1F  C-Raf kinase (Homo sapiens, UniProt P04049)              pIC50          > 6.52
1  CCCS(=O)(=O)Nc1ccc(F)c(Nc2ccc3ncc(Nc4c(F)ccc(NS(=O)(=O)CCC)c4F)nc3c2)c1F  C-Raf kinase (Homo sapiens, UniProt P04049)              pIC50          > 6.52
2  CCOc1cnc2ccc(Nc3cc(NS(C)(=O)=O)ccc3F)c(C#N)c2n1  C-Raf kinase (Homo sapiens, UniProt P04049)              pIC50    5.00 to 6.00
3  CS(=O)(=O)Nc1ccc(F)c(Nc2ccc3ncc(N4CCOCC4)nc3c2C#N)c1  C-Raf kinase (Homo sapiens, UniProt P04049)              pIC50    5.00 to 6.00
4  COc1cnc2ccc(Nc3cc(NS(=O)(=O)c4ccccc4)ccc3F)c(C#N)c2n1  C-Raf kinase (Homo sapiens, UniProt P04049)              pIC50          > 6.52
5  CCCS(=O)(=O)N(CC)c1ccc(F)c(Nc2ccc3ncc(OC)nc3c2C#N)c1F  C-Raf kinase (Homo sapiens, UniProt P04049)              pIC50          > 6.52
6  CCCS(=O)(=O)Nc1ccc(F)c(Nc2ccc3ncc(N(C)C)nc3c2C#N)c1F  C-Raf kinase (Homo sapiens, UniProt P04049)              pIC50          > 6.52

Field: next compound
What value of pIC50 has been reported for the following compound? CCCS(=O)(=O)Nc1ccc(F)c(Nc2ccc3ncc(O)nc3c2C#N)c1F
> 6.52

====

Target: UniProtKB P15056
Assay: B-Raf kinase assay ([33P] incorporation into MEK1 K97R)
Conditions: recombinant B-Raf, 8 μM ATP, 30 min, 30° C.; read-out: IC50 ranking against B-Raf kinase
pIC50: −log10 of the molar value.
Listing of recorded pIC50 by entry.

>>> print(df.to_string())
                           structure_smiles  endpoint_value
0  CCCS(=O)(=O)N(C)c1ccc(F)c(Nc2ccc3ncc(OC)nc3c2C#N)c1F          > 6.52

Would you mind telling me what pIC50 value was observed for CCCS(=O)(=O)Nc1ccc(C)c(Nc2ccc3ncc(N4CCOCC4)nc3c2C#N)c1 ?
6.00 to 6.52

Record: COc1cnc2ccc(Nc3c(F)ccc(NS(C)(=O)=O)c3F)c([N+](=O)[O-])c2n1
6.00 to 6.52

Also CCCS(=O)(=O)Nc1ccc(F)c(Nc2ccc3ncc(OC)nc3c2C(=O)OC)c1F , if possible.
> 6.52

Queued: N#Cc1c(Nc2cc(NS(=O)(=O)c3ccccc3)ccc2F)ccc2ncc(N3CCOCC3)nc12
> 6.52

Would you mind doing CCCS(=O)(=O)Nc1ccc(F)c(Nc2ccc3ncc(NC(=O)C4CC4)nc3c2)c1F as well?
6.00 to 6.52

Request: CCCS(=O)(=O)Nc1ccc(F)c(Nc2ccc3ncc(OC)nc3c2N)c1F
6.00 to 6.52

Please answer likewise for CCCS(=O)(=O)Nc1ccc(F)c(Nc2ccc3ncc(O)nc3c2C#N)c1F
> 6.52

# repeat for CCCS(=O)(=O)Nc1ccc(F)c(Nc2ccc3ncc(Nc4ccc(F)cc4F)nc3c2)c1F
> 6.52

Quick one: CCCS(=O)(=O)Nc1ccc(F)c(Nc2ccc3ncc(OC)nc3c2[N+](=O)[O-])c1F
> 6.52

Same thing, different molecule: CCCS(=O)(=O)Nc1cccc(Nc2ccc3ncc(OC)nc3c2C#N)c1C
> 6.52

Item: CCCS(=O)(=O)Nc1ccc(F)c(Nc2ccc3ncc(N4CCOCC4)nc3c2C#N)c1Cl
> 6.52
